- measurement_target: L-lactate dehydrogenase (Plasmodium falciparum (isolate CDC / Honduras)) (UniProt Q27743)
- Sequence (Q27743 whole entry, looked up): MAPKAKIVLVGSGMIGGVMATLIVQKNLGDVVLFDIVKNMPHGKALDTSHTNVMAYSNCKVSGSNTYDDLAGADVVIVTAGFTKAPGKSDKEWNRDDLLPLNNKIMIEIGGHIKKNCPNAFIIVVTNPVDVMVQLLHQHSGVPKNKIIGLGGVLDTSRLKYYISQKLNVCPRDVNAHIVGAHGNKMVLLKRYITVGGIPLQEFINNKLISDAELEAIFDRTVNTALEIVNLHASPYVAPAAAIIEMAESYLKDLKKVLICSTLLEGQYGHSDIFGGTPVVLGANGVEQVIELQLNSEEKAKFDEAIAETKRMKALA
- protocol_description: PfLDH activity inhibition – cell lysate, 3D7 strain, counter-screen for P. falciparum growth inhibition project (AID 2304);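 also: 0% = vehicle and 100% = reference inhibitor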
- applied_conditions: P. falciparum 3D7 crude extract, LDH APAD/NBT absorbance; at 2 µM; active compounds read high
Activity calls are given as the source filed them. No rule for the calls is given here.
attribute_measured: inhibition

compound	measurement_target	endpoint_value
O=C(C=Cc1ccc(Cl)c(Cl)c1)NCCCCCN1CCCC(CCCNS(=O)(=O)c2cccc3cccnc23)C1 (stereo not given)	L-lactate dehydrogenase (Plasmodium falciparum (isolate CDC / Honduras)) (UniProt Q27743)	2% (inactive)
O=C(C=Cc1cccs1)N(CCCn1ccnc1)c1nc2ccc(F)cc2s1	L-lactate dehydrogenase (Plasmodium falciparum (isolate CDC / Honduras)) (UniProt Q27743)	-1% (inactive)
COc1ccc(CN2CCCC(OC(c3ccc(F)cc3)c3ccc(F)cc3)C2)c(O)c1 (stereo not given)	L-lactate dehydrogenase (Plasmodium falciparum (isolate CDC / Honduras)) (UniProt Q27743)	0% (inactive)
O=[N+]([O-])c1ccc2nc(Nc3ccc(Cl)c(Cl)c3)c(Nc3ccc(Cl)c(Cl)c3)nc2c1	L-lactate dehydrogenase (Plasmodium falciparum (isolate CDC / Honduras)) (UniProt Q27743)	3% (inactive)
O=C(Nc1cncc(NC(=O)c2ccc(Cl)c(Cl)c2)c1)c1ccc(Cl)c(Cl)c1	L-lactate dehydrogenase (Plasmodium falciparum (isolate CDC / Honduras)) (UniProt Q27743)	0% (inactive)
